From: patent US20250313632A1

# key: entry, value: koff
- target-system: human B7-H3 (4Ig) protein (his tag) (human) (UniProt Q5ZPR3)
- experimental-details: SPR (Biacore T200), antibody captured on Protein A chip, B7-H3 injected, 1:1 model
State just the number; it will be interpreted in s⁻¹.

[in] Give the measured koff of 62H9H5 (antibody, V domains shown) VH: QVQLQQSGAELAKPGASVKMSCKASGYTFTNYWIHWVKQRPGQGLEWIGYISPSTGYTEYNQKFKGKATLTAVKSSSTAFMQLSSLTSEDSAVYFCARGTGYWGQGTTLTVSS VL: DIQMTQSPASLSASVGESVTITCRASENIYSFFAWYQQKEGKSPQLLVYNAKTLEEGVPSRFSGSGSGTQFSLKINSLQPEDFGSYYCQHNYVSPFTFGSGTKLEIK .
[out] 0.00016

[in] Give the measured koff of 227E12D1 (antibody, V domains shown) VH: EVKLVESGGGLVKPGGSLKLSCAASGFTFSSYGMSWVRQTPEKRLEWVATISGGGTYTYYPDSVKGRFTISRDNAKNNLYLQMSSLRSDDTALYYCARHEGLVMDYWGQGTSVTVSS VL: DIQMTQSPASLSASVGETVTITCRASENIYSYLAWYQQKQGKSPQLVVYNAKTLAEGVPSRFSGSGSGTQFSLKINSLQPEDFGTYYCQHHYGPPPYTFGGGTKLEIK .
[out] 0.000368
